- Test system: Breast_MCF7
- PROTOCOL SUMMARY: Cell proliferation assay (ATPlite)
- Type: cell-based
- MEASUREMENT CONDITIONS: Homo sapiens, MCF7; MCF-7, Breast adenocarcinoma (Table D); read-out: IC50 in cancer cell line
pIC50: −log10 of the molar value.
EXPERIMENTAL READOUT: pIC50

*Q* Returns the measured pIC50 for the input compound. Input: C#Cc1cccc(Nc2ncnc3cc(OCCOC)c(OCCOC)cc23)c1 [Erlotinib]
*A* ≥ 5.30

* * *

- SYSTEM UNDER TEST: HDAC
- PROTOCOL SUMMARY: HDAC fluorimetric enzyme assay (HeLa nuclear extract)
pIC50: −log10 of the molar value.
EXPERIMENTAL READOUT: pIC50

*Q* Request: pIC50, test system HDAC, entry COc1cc2ncnc(NCc3ccc(F)c(Cl)c3)c2cc1OCCCCCCC(=O)NO [Compound 88]
*A* > 7.00

*Q* Request: pIC50, test system HDAC, entry COc1cc2ncnc(N[C@H](C)c3ccccc3)c2cc1OCCCCCC(=O)NO [Compound 77]
*A* > 7.00

*Q* Request: pIC50, test system HDAC, entry C[C@@H](Nc1ncnc2ccc(OCCCCCC(=O)NO)cc12)c1ccccc1 [Compound 50]
*A* 6.00 to 7.00

*Q* Request: pIC50, test system HDAC, entry COCCOc1cc2ncnc(Nc3ccc(F)c(Cl)c3)c2cc1NC(=O)CCCCC(=O)NO [Compound 69]
*A* 6.00 to 7.00

*Q* Request: pIC50, test system HDAC, entry O=C(CCCCOc1ccc2ncnc(Nc3ccc(F)c(Cl)c3)c2c1)NO [Compound 16]
*A* 6.00 to 7.00

*Q* Request: pIC50, test system HDAC, entry C#Cc1cccc(Nc2ncnc3ccc(OCCCC(=O)NO)cc23)c1 [Compound 21]
*A* 5.00 to 6.00

*Q* Request: pIC50, test system HDAC, entry COc1cc2ncnc(NCc3ccc(F)cc3)c2cc1OCCCCCCC(=O)NO [Compound 86]
*A* > 7.00

*Q* Request: pIC50, test system HDAC, entry Nc1cc(Br)ccc1NC(=O)COc1ccc2ncnc(Nc3ccc(F)c(Cl)c3)c2c1 [Compound 45]
*A* < 5.00

*Q* Request: pIC50, test system HDAC, entry C#Cc1cccc(Nc2ncnc3ccc(OCCCCCCC(=O)NO)cc23)c1 [Compound 24]
*A* > 7.00

*Q* Request: pIC50, test system HDAC, entry C#Cc1cccc(Nc2ncnc3cc(OC)c(OCCCCC(=O)NO)cc23)c1 [Compound 10]
*A* 6.00 to 7.00

*Q* Request: pIC50, test system HDAC, entry C#Cc1cc(Nc2ncnc3cc(OC)c(OCCCCCCC(=O)NO)cc23)ccc1F [Compound 75]
*A* > 7.00

*Q* Request: pIC50, test system HDAC, entry C[C@@H](Nc1ncnc2ccc(OCCCCCC(=O)NO)cc12)c1ccccc1 [Compound 78]
*A* > 7.00

*Q* Request: pIC50, test system HDAC, entry C#Cc1cc(Nc2ncnc3cc(OCCOC)c(OCCCCCCC(=O)NO)cc23)ccc1F [Compound 76]
*A* > 7.00

*Q* Request: pIC50, test system HDAC, entry COc1cc2ncnc(Nc3ccc(F)c(Cl)c3)c2cc1OCCCCC(=O)NO [Compound 4]
*A* 6.00 to 7.00

*Q* Request: pIC50, test system HDAC, entry C#Cc1cccc(Nc2ncnc3cc(OC)c(OCCCCCC(=O)NO)cc23)c1 [Compound 11]
*A* > 7.00

*Q* Request: pIC50, test system HDAC, entry C#Cc1cccc(Nc2ncnc3ccc(OCCCCC(=O)NO)cc23)c1 [Compound 22]
*A* > 7.00

*Q* Request: pIC50, test system HDAC, entry C#Cc1cccc(Nc2ncnc3cc(OC)c(OCCCC(=O)NO)cc23)c1 [Compound 9]
*A* 6.00 to 7.00

*Q* Request: pIC50, test system HDAC, entry COc1cc2ncnc(Nc3ccc(F)c(Cl)c3)c2cc1OCCCCCCC(=O)NO [Compound 6]
*A* > 7.00

*Q* Request: pIC50, test system HDAC, entry COCCOc1cc2ncnc(Nc3ccc(F)c(Cl)c3)c2cc1NC(=O)CCCC(=O)NO [Compound 68]
*A* 5.00 to 6.00

*Q* Request: pIC50, test system HDAC, entry O=C(CCCCCOc1ccc2ncnc(Nc3ccc(F)c(Cl)c3)c2c1)NO [Compound 17]
*A* > 7.00

*Q* Request: pIC50, test system HDAC, entry COc1ccc([C@@H](C)Nc2ncnc3cc(OC)c(OCCCCCCC(=O)NO)cc23)cc1 [Compound 83]
*A* > 7.00

*Q* Request: pIC50, test system HDAC, entry COc1cc2ncnc(NCc3ccccc3)c2cc1OCCCCCCC(=O)NO [Compound 85]
*A* > 7.00

*Q* Request: pIC50, test system HDAC, entry COc1cc2ncnc(NCc3ccc(F)c(F)c3)c2cc1OCCCCCCC(=O)NO [Compound 87]
*A* > 7.00

*Q* Request: pIC50, test system HDAC, entry COc1cc2ncnc(NCCc3ccccc3)c2cc1OCCCCCCC(=O)NO [Compound 84]
*A* > 7.00

*Q* Request: pIC50, test system HDAC, entry COc1cc2ncnc(Nc3ccc(F)c(Cl)c3)c2cc1OCC(=O)NO [Compound 1]
*A* < 5.00

*Q* Request: pIC50, test system HDAC, entry COc1cc2ncnc(Nc3ccc(F)c(Cl)c3)c2cc1OCCCCCC(=O)NO [Compound 5]
*A* > 7.00

*Q* Request: pIC50, test system HDAC, entry COc1cc2ncnc(Nc3ccc(F)c(Cl)c3)c2cc1OCCC(=O)NO [Compound 2]
*A* < 5.00

*Q* Request: pIC50, test system HDAC, entry O=C(CCOc1ccc2ncnc(Nc3ccc(F)c(Cl)c3)c2c1)NO [Compound 14]
*A* 5.00 to 6.00

*Q* Request: pIC50, test system HDAC, entry COc1cc2ncnc(N[C@H](C)c3ccccc3)c2cc1OCCCCCCC(=O)NO [Compound 79]
*A* > 7.00

*Q* Request: pIC50, test system HDAC, entry C#Cc1cccc(Nc2ncnc3cc(OCCOC)c(OCCCCCCC(=O)NO)cc23)c1 [Compound 36]
*A* > 7.00

*Q* Request: pIC50, test system HDAC, entry C#Cc1cccc(CNc2ncnc3cc(OC)c(OCCCCCCC(=O)NO)cc23)c1 [Compound 90]
*A* > 7.00

*Q* Request: pIC50, test system HDAC, entry C#Cc1cccc(Nc2ncnc3cc(OC)c(OCCC(=O)NO)cc23)c1 [Compound 8]
*A* < 5.00

*Q* Request: pIC50, test system HDAC, entry O=C(/C=C/c1ccc(OCCOc2ccc3ncnc(Nc4ccc(F)c(Cl)c4)c3c2)cc1)NO [Compound 63]
*A* 6.00 to 7.00

*Q* Request: pIC50, test system HDAC, entry O=C(COc1ccc2ncnc(Nc3ccc(F)c(Cl)c3)c2c1)NO [Compound 13]
*A* < 5.00

*Q* Request: pIC50, test system HDAC, entry O=C(CCCCCCOc1ccc2ncnc(Nc3ccc(F)c(Cl)c3)c2c1)NO [Compound 18]
*A* > 7.00
